Could you please report measured growth for the items listed next?
System: MDA-MB-231 breast
Assay: NCI-60 one-dose screen, 48 h (100 = growth as untreated, 0 = no growth, -100 = all killed)
Conditions: 10 µM unless noted
Protocol: Cells are grown in 96 well plates and exposed to the test compound for 48 hours. Compounds are tested at a single concentration, which is 10^-5 M for most compounds. The reported endpoint is percent growth (GI% or GIPRCNT), where numbers from 0 - 100% represent growth inhibition, and numbers from -100% - 0 represent cell death. For example, a value of 40 represents 60% growth inhibition. A value of 0 means no net growth occurred over the course of the experiment. […]
Compounds without any hit were thinned out: in the full panel of roughly 83,000, 20% have a hit.
State the answer as a number, implicitly in %.

Task item: Name the reported growth value associated with the compound O=[N+]([O-])c1cccc(SSc2cccc([N+](=O)[O-])c2)c1
Reply: 95.4

Task item: Lookup c1ccc2c(c1)OC1OC2Oc2ccccc21
Reply: 114

Task item: Now consider NN1CCOC(c2ccccc2)C1 (stereo not drawn) and answer again.
Reply: 99.1

Task item: Same question for CCOC(=O)c1c(C)cc(=O)oc1C please.
Reply: 96.3

Task item: What about this compound? Nc1cc(N)c(N)cc1N
Reply: 89.6

Task item: Further, for Nc1nc(N)c2[nH]cnc2n1 ?
Reply: 99.3

Task item: // repeat for CCCCNc1ccc(Nc2ccccc2)cc1 and report
Reply: 64.4

Task item: Another: O=CN1CCCCC1
Reply: 104
